In this section, each of the compounds is paired with its reported AC50.
Molecular target: Sodium-dependent noradrenaline transporter (Homo sapiens, UniProt P23975); also: assay procedure not described here
Sequence (P23975 whole entry): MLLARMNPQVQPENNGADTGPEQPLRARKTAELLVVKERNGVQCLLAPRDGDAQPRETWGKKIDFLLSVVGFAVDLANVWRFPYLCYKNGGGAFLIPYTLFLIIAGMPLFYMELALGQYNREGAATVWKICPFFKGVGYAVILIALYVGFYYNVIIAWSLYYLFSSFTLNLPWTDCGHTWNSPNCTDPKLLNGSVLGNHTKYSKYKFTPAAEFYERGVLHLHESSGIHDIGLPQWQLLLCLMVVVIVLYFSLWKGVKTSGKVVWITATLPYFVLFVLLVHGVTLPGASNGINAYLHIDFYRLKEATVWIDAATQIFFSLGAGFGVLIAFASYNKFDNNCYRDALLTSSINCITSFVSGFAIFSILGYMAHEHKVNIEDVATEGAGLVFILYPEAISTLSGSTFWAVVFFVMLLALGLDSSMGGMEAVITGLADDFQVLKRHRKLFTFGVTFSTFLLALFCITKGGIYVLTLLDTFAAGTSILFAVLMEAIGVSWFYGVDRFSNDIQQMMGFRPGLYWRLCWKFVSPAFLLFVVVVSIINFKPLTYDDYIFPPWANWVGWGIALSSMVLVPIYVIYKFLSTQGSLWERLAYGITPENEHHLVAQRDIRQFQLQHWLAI

[
  {
    "compound": "CC(CN1c2ccccc2Sc2ccccc21)N(C)C (centres undefined)",
    "AC50": "0.81 µM"
  },
  {
    "compound": "CC=CC1=C(C(=O)O)N2C(=O)[C@@H](NC(=O)[C@H](N)c3ccc(O)cc3)[C@H]2SC1",
    "AC50": "> 30 µM"
  },
  {
    "compound": "Cc1ccccc1N1C(=O)c2cc(S(N)(=O)=O)c(Cl)cc2NC1C (centres undefined)",
    "AC50": "> 10 µM"
  },
  {
    "compound": "CC(C)(O/N=C(\\C(=O)N[C@@H]1C(=O)N2C(C(=O)[O-])=C(C[n+]3ccccc3)CS[C@H]12)c1csc(N)n1)C(=O)O",
    "AC50": "> 300 µM"
  }
]

###

These molecules were tested on Vasopressin V2 receptor (Homo sapiens, UniProt P30518); AC50 is the recorded read-out. Also: assay procedure not described here.
Sequence (P30518 whole entry): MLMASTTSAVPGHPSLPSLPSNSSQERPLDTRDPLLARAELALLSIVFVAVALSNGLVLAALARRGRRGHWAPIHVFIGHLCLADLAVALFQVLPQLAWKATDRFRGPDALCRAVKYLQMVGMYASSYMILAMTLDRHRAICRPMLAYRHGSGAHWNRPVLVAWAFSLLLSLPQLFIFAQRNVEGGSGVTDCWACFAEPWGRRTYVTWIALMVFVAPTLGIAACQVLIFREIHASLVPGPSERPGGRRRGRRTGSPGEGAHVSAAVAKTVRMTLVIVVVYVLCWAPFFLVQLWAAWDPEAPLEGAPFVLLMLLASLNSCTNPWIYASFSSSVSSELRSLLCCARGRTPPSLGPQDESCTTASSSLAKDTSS

[
  {
    "structure": "Cc1cc(C)nc(NS(=O)(=O)c2ccc(N)cc2)n1",
    "AC50": "> 10 µM"
  },
  {
    "structure": "CC(=O)[C@H]1CC[C@H]2[C@@H]3C[C@H](C)C4=CC(=O)CC[C@]4(C)[C@H]3[C@@H](O)C[C@]12C",
    "AC50": "> 10 µM"
  },
  {
    "structure": "COc1cc(C(=O)OCc2cccc(COC(=O)c3cc(OC)c(OC)c(OC)c3)n2)cc(OC)c1OC",
    "AC50": "> 30 µM"
  },
  {
    "structure": "O=C(O)Cc1ccccc1Oc1ccc(Cl)cc1Cl",
    "AC50": "> 30 µM"
  },
  {
    "structure": "Cn1cc(C(=O)[C@@H]2CCc3nc[nH]c3C2)c2ccccc21",
    "AC50": "> 30 µM"
  },
  {
    "structure": "CC1=C(/C=C/C(C)=C/C=C/C(C)=C/CO)C(C)(C)CCC1",
    "AC50": "> 10 µM"
  },
  {
    "structure": "CCCc1nc2c(C)cc(-c3nc4ccccc4n3C)cc2n1Cc1ccc(-c2ccccc2C(=O)O)cc1",
    "AC50": "> 30 µM"
  }
]

###

Where a SMILES comes first, the peptide text is derived from it. [ ]: non-standard residue; d: D form. pGlu = O=C1CC[C@@H](C(=O)O)N1; Thz = O=C(O)[C@@H]1CSCN1
These compounds were tested on D(3) dopamine receptor (Homo sapiens, UniProt P35462); AC50 is the recorded read-out. Also: assay procedure not described here.
Sequence (P35462 whole entry): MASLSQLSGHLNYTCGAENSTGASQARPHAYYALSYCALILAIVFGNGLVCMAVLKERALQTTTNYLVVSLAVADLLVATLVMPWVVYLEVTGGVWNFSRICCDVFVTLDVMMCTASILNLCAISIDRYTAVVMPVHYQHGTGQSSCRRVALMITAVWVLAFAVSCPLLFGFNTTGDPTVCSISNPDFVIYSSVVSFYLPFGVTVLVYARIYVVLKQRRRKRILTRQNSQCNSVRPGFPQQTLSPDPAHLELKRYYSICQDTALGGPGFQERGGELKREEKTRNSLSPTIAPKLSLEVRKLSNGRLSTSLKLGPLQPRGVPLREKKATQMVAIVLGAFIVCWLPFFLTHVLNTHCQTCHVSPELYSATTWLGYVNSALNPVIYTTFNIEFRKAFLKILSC

[
  {
    "compound": "CCCN1CCCC[C@H]1C(=O)Nc1c(C)cccc1C",
    "AC50": "> 30 µM"
  },
  {
    "compound": "COc1cc(N)c(Cl)cc1C(=O)NC1CCN(CCCOc2ccc(F)cc2)CC1OC (configuration not stated) [CISAPRIDE]",
    "AC50": "6.3 µM"
  },
  {
    "compound": "CCOC(=O)c1ccc(C#Cc2ccc3c(c2)C(C)(C)CCS3)nc1",
    "AC50": "> 30 µM"
  },
  {
    "compound": "O=c1[nH]c2ccccc2n1CCCN1CCN(C(c2ccccc2)c2ccccc2)CC1 [OXATOMIDE]",
    "AC50": "0.13 µM"
  },
  {
    "compound": "COc1ccc([C@@H]2CC(=O)c3c(O)cc(O)cc3O2)cc1O",
    "AC50": "> 30 µM"
  },
  {
    "compound": "CC(c1cc2ccccc2s1)N(O)C(N)=O (configuration not stated)",
    "AC50": "> 30 µM"
  },
  {
    "compound": "CCN1CC(CCN2CCOCC2)C(c2ccccc2)(c2ccccc2)C1=O (configuration not stated)",
    "AC50": "> 30 µM"
  },
  {
    "compound": "C[C@]12CCC(=O)C[C@@H]1CC[C@@H]1[C@@H]2CC[C@]2(C)[C@@H](O)CC[C@@H]12",
    "AC50": "> 30 µM"
  },
  {
    "compound": "Cc1nc(Nc2ncc(C(=O)Nc3c(C)cccc3Cl)s2)cc(N2CCN(CCO)CC2)n1",
    "AC50": "> 30 µM"
  },
  {
    "compound": "O=C(O)CCNC(=O)c1ccc(/N=N/c2ccc(O)c(C(=O)O)c2)cc1 [BALSALAZIDE]",
    "AC50": "> 30 µM"
  },
  {
    "compound": "CC[C@H](C)C(=O)O[C@H]1C[C@@H](C)C=C2C=C[C@H](C)[C@H](CC[C@@H]3C[C@@H](O)CC(=O)O3)[C@H]21",
    "AC50": "> 10 µM"
  },
  {
    "compound": "CCOc1nc2cccc(C(=O)O)c2n1Cc1ccc(-c2ccccc2-c2nnn[nH]2)cc1",
    "AC50": "> 30 µM"
  },
  {
    "compound": "CCCc1nc2c(C)cc(-c3nc4ccccc4n3C)cc2n1Cc1ccc(-c2ccccc2C(=O)O)cc1",
    "AC50": "> 30 µM"
  },
  {
    "compound": "Cc1ccc(C)c(OCCCC(C)(C)C(=O)O)c1",
    "AC50": "> 10 µM"
  },
  {
    "compound": "O=C1CC[C@@H](C(=O)N2CSC[C@H]2C(=O)O)N1 [PIDOTIMOD] ([pGlu]-[Thz]-OH)",
    "AC50": "> 30 µM"
  },
  {
    "compound": "CN(Cc1cnc2nc(N)nc(N)c2n1)c1ccc(C(=O)N[C@@H](CCC(=O)O)C(=O)O)cc1 [METHOTREXATE]",
    "AC50": "> 30 µM"
  },
  {
    "compound": "CCCCOc1ccc(C(=O)CCN2CCCCC2)cc1",
    "AC50": "> 10 µM"
  },
  {
    "compound": "CC/C=C\\C/C=C\\C/C=C\\C/C=C\\C/C=C\\CCCC(=O)OCC",
    "AC50": "> 30 µM"
  },
  {
    "compound": "Cc1cc(=O)n(-c2ccccc2)n1C [ANTIPYRINE]",
    "AC50": "> 10 µM"
  },
  {
    "compound": "CC(C)Cc1ccc([C@H](C)C(=O)O)cc1",
    "AC50": "> 30 µM"
  },
  {
    "compound": "CC=CC1=C(C(=O)O)N2C(=O)[C@@H](NC(=O)[C@H](N)c3ccc(O)cc3)[C@H]2SC1",
    "AC50": "26 µM"
  },
  {
    "compound": "CC1=C(/C=C/C(C)=C/C=C/C(C)=C/CO)C(C)(C)CCC1",
    "AC50": "> 30 µM"
  }
]

These entries and their values trace back to ChEMBL document CHEMBL5291721.
